Assignment: determine reported AC50 for the given compounds.
Biological target: Cytochrome P450 2C19 (Homo sapiens)
Sequence (P33261 whole entry): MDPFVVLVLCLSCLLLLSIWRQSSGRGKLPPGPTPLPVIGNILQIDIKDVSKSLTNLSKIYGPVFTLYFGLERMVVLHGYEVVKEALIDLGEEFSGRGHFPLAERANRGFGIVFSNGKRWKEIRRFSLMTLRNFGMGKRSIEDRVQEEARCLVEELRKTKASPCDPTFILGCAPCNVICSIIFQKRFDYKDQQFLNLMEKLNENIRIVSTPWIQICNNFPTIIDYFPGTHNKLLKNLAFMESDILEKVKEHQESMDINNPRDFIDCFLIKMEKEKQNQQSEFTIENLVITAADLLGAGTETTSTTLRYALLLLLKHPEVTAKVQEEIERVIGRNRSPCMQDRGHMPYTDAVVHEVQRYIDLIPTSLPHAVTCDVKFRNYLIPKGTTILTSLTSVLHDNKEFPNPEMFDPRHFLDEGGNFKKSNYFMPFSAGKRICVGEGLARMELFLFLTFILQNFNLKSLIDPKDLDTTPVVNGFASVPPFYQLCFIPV
Experiment: Cytochrome panel assay with activity outcomes. Panel member name: p450-cyp2c19 Compounds with AC50 equal or less than 10 uM are considered active
Assay type: functional
Details: read-out: AC50

Consider the worked cases shown below.
CCOC(=O)CC(=O)CSc1nc(-c2cccnc2)cc(C)c1C#N
8.91 µM (inconclusive)
CCOc1ccc(CNC(=O)C2CCC(=O)N2C2CCCC2)cc1OC (stereo not given)
22.4 µM (inconclusive)
CC(=O)c1ccc(-n2c(CCC(=O)O)ccc2-c2cccs2)cc1
11.2 µM (inconclusive)
CCc1ccc(C(=O)COC(=O)c2cccc(N3C(=O)c4c(C)nc5ccccc5c4C3=O)c2)cc1
7.08 µM (inconclusive)
COc1ccc(NC(=O)c2cc(-c3cccnc3)nc3ccc(C)cc23)cc1OC
10 µM (inconclusive)
CCN(CC(=O)Nc1ccc(N2CCOCC2)cc1)Cc1nc2ccccc2c(=O)[nH]1
22.4 µM (inconclusive)

Value sought for every listed compound: AC50.
1. CCSc1nnc(C(N)Cc2ccccc2)o1 (stereo not given)
2. Cc1nn(Cc2ccc(Cl)cc2Cl)c(C)c1NC(=O)c1sc2ccccc2c1Cl

1. 28.2 µM (inconclusive)
2. 22.4 µM (inconclusive)

###

Test system: Streptococcus
Assay: Group A Streptococcus viability loss, dose response, counter-screen for streptokinase expression inhibitor project, luminescence, BacTiterGlo (AID 1915);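 also: potency for reduction of bacterial viability or growth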
Assay type: functional, organism-based
Calls of active or inactive are those of the source.
Parameter measured: EC50

Consider the worked cases shown below.
CC1CCc2c(sc3nc(C(C)(C)C)nc(N4CCN(C(=O)CCl)CC4)c23)C1 (stereo not drawn)
14.1 µM (active)
O=C(Nc1ccc([N+](=O)[O-])cc1)Nc1ccc(Cl)cc1F
> 150 µM (not active)
Cc1ccccc1C(=O)N=c1nc(S)ss1
36.5 µM (active)
O=C(O)c1ccc(N/N=C/c2ccc(-c3ccc(Cl)cc3Cl)o2)cc1
2.33 µM (active)
Cc1nnc(NC(=O)c2ccc(S(=O)(=O)N3CC(C)CC(C)C3)cc2)o1 (stereo not drawn)
21 µM (active)
O=[N+]([O-])c1ccc(-c2nc(Nc3cccc(O)c3)c3ccccc3n2)cc1
8.36 µM (active)
c1ccc(N=C2N=C(Nc3ccccn3)c3ccccc32)nc1
> 150 µM (not active)

Next:
GET /values?readout=EC50&item= COc1cccc(/C=C/c2ccc3cccc(O)c3n2)c1OC
7.81 µM (active)

###

Recorded below: AC50, system Cytochrome P450 1A2 (Homo sapiens).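 Also: PubChem cytochrome P450 panel assay, CYP1A2 panel member.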

Consider the worked cases shown below.
C[C@@H](CN1CCC(Cc2ccccc2)CC1)[C@@H](O)c1ccc(O)cc1
39.8 µM (inconclusive)
CN1CCN(c2ncc3nc(-c4ccccc4)c(=O)n(C)c3n2)CC1
15.8 µM (inconclusive)
O=C(O)c1ccc(CSc2nc3ccccc3o2)cc1
0.0501 µM (inconclusive)
COc1ccc2nc(O)c(CN(CCO)C(=O)c3cccs3)cc2c1
20 µM (inconclusive)
O=C(O)/C=C\C=C/c1ccc2c(c1)OCO2
1.58 µM (inconclusive)

Value sought for every listed molecule: AC50.
1. Cc1sc2c(c1C)C(c1ccc(C(C)(C)C)cc1)=NCC(=O)N2CC(=O)Nc1nccs1
2. O=C(NCc1ccccc1)c1ccc(Cl)cc1[N+](=O)[O-]
3. CCN(CC)CCOc1ccc(Cc2ccccc2)cc1
4. COc1ccccc1C1(CC(=O)Nc2nccs2)CCOC(C(C)C)C1 (stereo unspecified)
5. O=C(Nc1cccc(F)c1)N1CC[C@@]2(CCCN(S(=O)(=O)c3ccccc3)C2)C1
6. COc1ccc(NC(=O)N2CCC3(CC2)CCN(S(=O)(=O)c2ccccc2)CC3)cc1

1: 22.4 µM (inconclusive); 2: 20 µM (inconclusive); 3: 12.6 µM (inconclusive); 4: 5.62 µM (inconclusive); 5: 15.8 µM (inconclusive); 6: 31.6 µM (inconclusive)

###

Target: UniProt:P9WMR3
Sequence (P9WMR3 whole entry): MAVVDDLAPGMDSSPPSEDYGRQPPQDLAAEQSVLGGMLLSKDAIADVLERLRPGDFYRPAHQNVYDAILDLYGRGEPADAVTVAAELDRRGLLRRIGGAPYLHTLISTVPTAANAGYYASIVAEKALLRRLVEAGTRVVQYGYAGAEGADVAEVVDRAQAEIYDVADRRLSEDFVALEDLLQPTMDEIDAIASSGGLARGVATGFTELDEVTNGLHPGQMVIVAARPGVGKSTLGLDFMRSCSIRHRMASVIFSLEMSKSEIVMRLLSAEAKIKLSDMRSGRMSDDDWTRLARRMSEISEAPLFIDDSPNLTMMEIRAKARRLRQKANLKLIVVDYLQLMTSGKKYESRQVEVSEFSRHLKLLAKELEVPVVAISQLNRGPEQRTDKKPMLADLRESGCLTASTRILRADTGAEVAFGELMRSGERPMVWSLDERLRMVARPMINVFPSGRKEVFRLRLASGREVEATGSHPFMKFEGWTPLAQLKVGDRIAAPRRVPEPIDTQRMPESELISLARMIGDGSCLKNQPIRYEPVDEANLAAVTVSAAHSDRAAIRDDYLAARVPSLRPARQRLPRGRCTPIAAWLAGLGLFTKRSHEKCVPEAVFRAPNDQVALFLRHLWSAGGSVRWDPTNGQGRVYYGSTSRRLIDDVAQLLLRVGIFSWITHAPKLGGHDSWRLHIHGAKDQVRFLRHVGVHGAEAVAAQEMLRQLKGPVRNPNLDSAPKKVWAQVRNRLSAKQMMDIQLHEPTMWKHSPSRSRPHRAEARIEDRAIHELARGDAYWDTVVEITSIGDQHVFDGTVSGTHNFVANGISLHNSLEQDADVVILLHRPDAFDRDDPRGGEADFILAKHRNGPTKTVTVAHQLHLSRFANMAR
Test: DnaB intein splicing inhibitors, dose response, biochemical, cell-free fluorescence (AID 449749)
Assay type: functional
Activity calls are given as the source filed them.
Pick one: Y for active, N for inactive

Cc1ccc(-n2nc(C)c3c2OC(N)=C(C#N)C3c2ccc(C)o2)cc1 (configuration not stated)
Y
CC1CCc2c(sc3nc(C(C)(C)C)nc(N4CCN(C(=O)CCl)CC4)c23)C1 (configuration not stated)
Y
COC(=O)c1c(NC(=O)/C=C/C(=O)O)sc(C)c1-c1ccc(C)cc1
Y

Assay result, entry Cc1ccc2c(c1)c1c3n2CCN(C(=O)CCl)C3CCC1 (configuration not stated) — outcome?
Y

Assay result, entry FC(F)(F)c1ccc2c(c1)N(CCCN1CCN(CCCl)CC1)c1ccccc1S2 — outcome?
Y

Assay result, entry Cn1nc([N+](=O)[O-])nc1Sc1nnc(-c2ccccc2)o1 — outcome?
Y

Assay result, entry Clc1ccc(-c2nnc(Sc3nc4ccccc4o3)c3ccccc23)cc1 — outcome?
Y

Assay result, entry O=C(N/N=C/c1cc(Cl)cc([N+](=O)[O-])c1O)c1ccccc1NS(=O)(=O)c1cccs1 — outcome?
Y

###

Biological target: RNA-binding protein pos-1 (Caenorhabditis elegans, UniProt G5EF15)
Sequence (G5EF15 whole entry, the tested form may be a part): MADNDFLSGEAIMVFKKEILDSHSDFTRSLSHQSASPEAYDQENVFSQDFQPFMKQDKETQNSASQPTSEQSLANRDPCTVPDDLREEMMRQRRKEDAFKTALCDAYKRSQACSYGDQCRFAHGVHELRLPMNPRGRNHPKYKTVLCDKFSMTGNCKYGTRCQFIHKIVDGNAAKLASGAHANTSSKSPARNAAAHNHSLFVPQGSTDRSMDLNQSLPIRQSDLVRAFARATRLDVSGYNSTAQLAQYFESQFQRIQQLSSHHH
Assay: inhibitors of POS-1/mex-3 RNA binding, dose response, biochemical, fluorescence polarization (AID 1964);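 also: purified POS-1 fused to maltose binding protein made in E. coli; potency of compounds blocking POS-1 binding to fluorescent RNA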
Activity calls are given as the source filed them.
Assignment: determine reported EC50 for the given compounds.

C/C(=N\Nc1ccc(Cl)c(C(=O)O)c1)c1ccc[nH]1
> 300 µM (not active)
COc1ccccc1N1C(=O)C(Cl)=C(Nc2ccccc2O)C1=O
34.7 µM (active)
O=C(Nc1ccccc1F)c1coc(=O)c(Br)c1
> 300 µM (not active)

Value sought for every listed compound: EC50.
1. N=C1/C(=C\c2ccc(SCc3ccccc3)o2)C(=O)N=C2SC(CC(=O)N3CCOCC3)=NN12
2. O=C(N/N=C/c1cc(Cl)cc([N+](=O)[O-])c1O)c1ccccc1NS(=O)(=O)c1cccs1
3. COc1cc(OC)c2c(O)c3c(c(-c4c5c(c(O)c6c(OC)cc(OC)cc46)CO[C@@H](C)[C@H]5O)c2c1)[C@H](O)[C@H](C)OC3
4. O=C(NN1C(=O)c2ccccc2NC1c1ccccn1)c1ccc(Br)cc1 (centres undefined)
5. N#Cc1c(-c2ccc(Cl)cc2)c2c([nH]c1=O)-c1ccccc1OC2
6. CCOC(=O)c1c(N/C=C2/C(=O)NC(=O)N(c3cccc(C)c3)C2=O)sc2c1CCCC2

1. 63.4 µM (active)
2. 282 µM (active)
3. > 300 µM (not active)
4. 64.9 µM (active)
5. > 300 µM (not active)
6. > 300 µM (not active)

###

Target: UniProtKB P34707
Sequence (P34707 whole entry): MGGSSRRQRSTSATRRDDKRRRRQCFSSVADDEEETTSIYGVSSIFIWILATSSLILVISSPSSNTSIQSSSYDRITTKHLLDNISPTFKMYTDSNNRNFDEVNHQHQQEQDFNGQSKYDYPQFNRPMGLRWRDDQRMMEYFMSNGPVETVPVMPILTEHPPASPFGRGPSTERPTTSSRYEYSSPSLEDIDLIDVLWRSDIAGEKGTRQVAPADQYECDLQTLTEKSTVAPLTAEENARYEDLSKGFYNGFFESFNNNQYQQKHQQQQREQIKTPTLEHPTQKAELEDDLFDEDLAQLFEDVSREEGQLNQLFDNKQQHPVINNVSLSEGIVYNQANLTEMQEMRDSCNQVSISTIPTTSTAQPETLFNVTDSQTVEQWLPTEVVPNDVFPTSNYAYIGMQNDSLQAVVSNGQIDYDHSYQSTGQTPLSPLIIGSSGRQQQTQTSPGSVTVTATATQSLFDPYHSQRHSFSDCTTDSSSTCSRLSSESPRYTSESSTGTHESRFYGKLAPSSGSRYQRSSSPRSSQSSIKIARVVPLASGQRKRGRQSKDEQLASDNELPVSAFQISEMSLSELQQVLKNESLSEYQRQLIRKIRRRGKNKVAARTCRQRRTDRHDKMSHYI
Type: functional
Active and inactive are the calls of the source.
Pick one: active, inactive

Worked set:
O=C(c1cc(-c2ccccc2)on1)N1CCc2ccccc2C1
inactive
Clc1ccc(-c2nc(-c3cnccn3)no2)cc1
inactive
Nc1cc(O)nc(SCC(=O)Nc2ccc(S(=O)(=O)N3CCOCC3)cc2)n1
inactive
Clc1ccc(CSc2ncn(-c3ccccc3)n2)cc1
active
Fc1ccc(-c2nnc(-c3ccc(F)cc3)o2)cc1
inactive

Assay result, entry Brc1cccc(OCCSc2ncccn2)c1 — outcome?
inactive

Assay result, entry COC(=O)c1ccc(=O)n(Cc2ccco2)c1 — outcome?
inactive

Assay result, entry CCOC(=O)c1c(-c2ccc(-c3ccccc3)cc2)csc1NC(=O)CNCCN(C)C — outcome?
active

Assay result, entry COc1ccc(-c2cn(-c3ccc(C)cc3)c(=O)n2CC(=O)Nc2ccc(OC)cc2OC)cc1 — outcome?
inactive

Assay result, entry CCN(CC)c1ccc(/C=C2\C(=O)c3ccc(C(=O)O)cc3C2=O)cc1 — outcome?
active

Assay result, entry CC1Cc2ccccc2N1C(=O)C1CCN(S(=O)(=O)Cc2ccccc2)CC1 (stereo not drawn) — outcome?
inactive

Assay result, entry COc1ccc(NC(=O)CN2CCN(Cc3ccc4c(c3)OCO4)CC2)cc1OC — outcome?
inactive

Assay result, entry Clc1ccc(Nc2ccc(-n3ccnc3)nn2)cc1Cl — outcome?
inactive

Just for reference, ChEMBL document CHEMBL1201862 is where these values come from.
